These data points were gathered from PubChem BioAssay AID1745844.

System: rodent lifetime carcinogenesis bioassay, tumor incidence TD50
Assay Summary: carcinogenic potency in animals, long-term in vivo studies, CPDB compilation (AID 1745844)
Measurement Conditions: mouse; strain B6C3F1; females; oral dosing; site: liver; lesion: hepatoma; dosed 79 weeks; study length 79 weeks
Readout: TD50 (mg/kg/day)
API: value field is a number in mg/kg/day; no unit string.

Field: TD50 (rodent lifetime carcinogenesis bioassay, tumor incidence TD50). Entry: OCCN(CCO)C(=S)S
56.4

* * *

System: rodent lifetime carcinogenesis bioassay, tumor incidence TD50
Assay Summary: carcinogenic potency in animals, long-term in vivo studies, CPDB compilation (AID 1745844)
Measurement Conditions: rat; strain Sprague-Dawley; males; in drinking water; site: liver; lesion: several types; types named in the paper; dosed 162 weeks; study length 167 weeks
Readout: TD50

Field: TD50 (rodent lifetime carcinogenesis bioassay, tumor incidence TD50). Entry: O=NN(CCO)CCO
38.4 mg/kg/day

* * *

Tested on: rodent lifetime carcinogenesis bioassay, tumor incidence TD50
Assay Summary: carcinogenic potency in animals, long-term in vivo studies, CPDB compilation (AID 1745844)
Measurement Conditions: rat; strain Fischer 344; males; in drinking water; site: adrenal medulla; lesion: pheochromocytoma benign, bilateral + pheochromocytoma, benign; dosed 97 weeks; study length 97 weeks
Readout: TD50 (mg/kg/day)
API: value field is a number in mg/kg/day; no unit string.

Query: TD50; subject: COc1cc(-c2ccc(N=Nc3c(S(=O)(=O)O)cc4cc(S(=O)(=O)O)cc(N)c4c3O)c(OC)c2)ccc1N=Nc1c(S(=O)(=O)O)cc2cc(S(=O)(=O)O)cc(N)c2c1O
39.8

* * *

Test system: rodent lifetime carcinogenesis bioassay, tumor incidence TD50
Assay Summary: carcinogenic potency in animals, long-term in vivo studies, CPDB compilation (AID 1745844)
Measurement Conditions: rat; strain Fischer 344; males; by gavage; site: any site (literature study); lesion: several types; types named in the paper; dosed 102 weeks; study length 104 weeks
Readout: TD50 (mg/kg/day)
API: value field is a number in mg/kg/day; no unit string.

Query: TD50; subject: ClC(Cl)Br
267

* * *

Tested on: rodent lifetime carcinogenesis bioassay, tumor incidence TD50
Assay Summary: carcinogenic potency in animals, long-term in vivo studies, CPDB compilation (AID 1745844)
Measurement Conditions: rat; strain Fischer 344; females; in feed; site: liver; lesion: hepatocellular carcinoma + neoplastic nodule; dosed 78 weeks; study length 104 weeks
Readout: TD50

Field: TD50 (rodent lifetime carcinogenesis bioassay, tumor incidence TD50). Entry: Cc1ccc2c(c1N)C(=O)c1ccccc1C2=O
115 mg/kg/day

* * *

Tested on: rodent lifetime carcinogenesis bioassay, tumor incidence TD50
Assay Summary: carcinogenic potency in animals, long-term in vivo studies, CPDB compilation (AID 1745844)
Measurement Conditions: rat; strain Fischer 344; males; in drinking water; site: lung; lesion: several types; types named in the paper; dosed 111 weeks; study length 111 weeks
Readout: TD50

Field: TD50 (rodent lifetime carcinogenesis bioassay, tumor incidence TD50). Entry: CN(CCCC(=O)c1cccnc1)N=O
0.0688 mg/kg/day

* * *

Tested on: rodent lifetime carcinogenesis bioassay, tumor incidence TD50
Assay Summary: carcinogenic potency in animals, long-term in vivo studies, CPDB compilation (AID 1745844)
Measurement Conditions: rat; strain Fischer 344; females; inhaled; site: liver; lesion: hepatocellular carcinoma; dosed 52 weeks; study length 104 weeks
Readout: TD50

Query: TD50; subject: C=CCl
101 mg/kg/day
